system tested: wild type human RORγt ligand binding domain (RORyt LBD) (Homo sapiens, UniProt P51449)
Construct: His-tag (N); TurboTEV protease cleavage site (ENLYFQG) (N)
test protocol: RORγt ThermoFluor assay (thermal shift, binding affinity KD)
Exercise: state measured Kd for each of the compounds provided.
The answer is to be given in nM; state only the numeric part.

Query Kd on wild type human RORγt ligand binding domain (RORyt LBD) (Homo sapiens, UniProt P51449) for Cn1cc(-c2nc3ccc(C(O)(c4ccc(C(F)(F)F)nc4)c4cncn4C)cc3c(Cl)c2Cc2ccccc2)cn1 (single isomer, unassigned) [Example 111c]
22000

Query Kd on wild type human RORγt ligand binding domain (RORyt LBD) (Homo sapiens, UniProt P51449) for COc1nc2ccc(C(O)(c3ccc(Cl)cc3)c3cncn3C)cc2c(C#N)c1Cc1ccc(C(F)(F)F)cc1 (single isomer, unassigned) [Example 55c]
4.5

Query Kd on wild type human RORγt ligand binding domain (RORyt LBD) (Homo sapiens, UniProt P51449) for CCc1nc2ccc(C(O)(c3cnnn3C)C3CCOCC3)cc2c(Cl)c1Cc1ccc(C(F)(F)F)cc1 (single isomer, unassigned) [Example 33c]
0.84

Query Kd on wild type human RORγt ligand binding domain (RORyt LBD) (Homo sapiens, UniProt P51449) for Cn1cncc1C(O)(c1ccc(Cl)cc1)c1ccc2nc(C(F)(F)F)c(Cc3ccccc3)c(Cl)c2c1 (stereo not drawn) [Example 100]
25

Query Kd on wild type human RORγt ligand binding domain (RORyt LBD) (Homo sapiens, UniProt P51449) for COc1nc2ccc(C(O)(c3cccnc3)c3ccc(Cl)c(Cl)c3)cc2c(Cl)c1Cc1ccc(-n2cccn2)cc1 (single isomer, unassigned) [Example 161c]
11

Query Kd on wild type human RORγt ligand binding domain (RORyt LBD) (Homo sapiens, UniProt P51449) for CCc1nc2ccc(C(O)(c3cnnn3C)C3CN(C(C)=O)C3)cc2c(C#N)c1Cc1ccc(C(F)(F)F)cc1 (single isomer, unassigned) [Example 37]
1.9

* * *

Exercise: state measured log10(IC50) for each of the compounds provided.
system tested: wild type human RORγt LBD (Homo sapiens, UniProt P51449)
Construct: expressed in transfected cells; host or cells: HEK293T
Sequence (P51449 258-518): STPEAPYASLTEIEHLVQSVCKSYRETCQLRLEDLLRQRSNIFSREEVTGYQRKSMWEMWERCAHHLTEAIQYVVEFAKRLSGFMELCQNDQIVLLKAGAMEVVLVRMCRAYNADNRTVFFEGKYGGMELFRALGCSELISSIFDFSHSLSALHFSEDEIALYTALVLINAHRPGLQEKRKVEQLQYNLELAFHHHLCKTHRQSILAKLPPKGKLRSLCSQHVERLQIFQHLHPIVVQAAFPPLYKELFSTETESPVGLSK
test protocol: RORγt (LBD) Reporter Assay (GAL4-luciferase, HEK293T cells)
Type: cell-based
recorded conditions: HEK293T cells
In plain terms, each number is the log10 of measured IC50 in nM.

What value of log10(IC50) has been reported for the following compound? COc1nc2ccc(C(O)(c3ccc(F)cc3)C3CCN(C(C)=O)CC3)cc2c(Cl)c1Cc1ccc(-n2cccn2)cc1 (single isomer, unassigned) [Example 157c]
2.20

What value of log10(IC50) has been reported for the following compound? Cn1cncc1C(O)(c1ccc(C(F)(F)F)nc1)c1ccc2nc(N3CC(F)(F)C3)c(Cc3ccc(-n4cccn4)cc3)c(Cl)c2c1 (stereo not drawn) [Example 135a]
2.43

What value of log10(IC50) has been reported for the following compound? Cn1cncc1C(O)(c1ccc(C(F)(F)F)nc1)c1ccc2nc(N3CCOCC3)c(Cc3ccc(-n4cccn4)cc3)c(Cl)c2c1 (single isomer, unassigned) [Example 146b]
2.32

What value of log10(IC50) has been reported for the following compound? COc1nc2ccc(C(O)(c3ccc(F)cc3)c3cccnc3)cc2c(Cl)c1Cc1ccc(-n2cccn2)cc1 (stereo not drawn) [Example 158a]
1.76

What value of log10(IC50) has been reported for the following compound? Cn1cncc1C(O)(c1ccc(C(F)(F)F)nc1)c1ccc2nc(N3CC(F)(F)C3)c(Cc3ccc(-n4cccn4)cc3)c(Cl)c2c1 (single isomer, unassigned) [Example 135b]
2.41

What value of log10(IC50) has been reported for the following compound? Cn1cncc1C(O)(c1ccc2nc(Cl)c(Cc3ccc(-n4cccn4)cc3)c(Cl)c2c1)c1ncccn1 (stereo not drawn)
2.71

What value of log10(IC50) has been reported for the following compound? Cn1cncc1C(O)(c1ccc2nc(C(F)(F)F)c(Cc3ccccc3)c(O)c2c1)c1ccccn1 (stereo not drawn)
3.68

What value of log10(IC50) has been reported for the following compound? COCCN(C)c1nc2ccc(C(O)(c3ccc(Cl)cc3)c3cncn3C)cc2c(Cl)c1Cc1ccc(-n2cccn2)cc1 (stereo not drawn)
2.38

What value of log10(IC50) has been reported for the following compound? Cc1ccc(C(O)(c2ccc3nc(NC4CC4)c(Cc4ccc(C(F)(F)F)cc4)c(Cl)c3c2)c2cnnn2C)c(C)n1 (single isomer, unassigned) [Example 143b]
3.20
